Test system: rape
measurementNotes: Test B pre/postemergence rape
Format: in vivo, Brassica napus
conditionContext: Preemergence, Rate 125 g/ha; scale of 0 to 10 where 0 is no effect and 10 is complete control
reportedEndpoint: Rape plant response rating

{"molecule": "CCC=CCn1c(=O)on(C(=O)N(c2ccccc2)C(C)C)c1=O", "reportedEndpoint": "Rape plant response rating", "observedMeasurement": 0}
{"molecule": "CC(C)N(C(=O)n1oc(=O)n(CNC(=O)c2ccccc2)c1=O)c1ccccc1", "reportedEndpoint": "Rape plant response rating", "observedMeasurement": 0}
{"molecule": "CC[C@H](C)n1c(=O)on(C(=O)N(c2ccc(Cl)cc2)C(C)C)c1=O", "reportedEndpoint": "Rape plant response rating", "observedMeasurement": 1}
{"molecule": "CC(C)N(C(=O)n1oc(=O)n(CC2CCCCO2)c1=O)c1ccc(Cl)cc1 (stereo not shown)", "reportedEndpoint": "Rape plant response rating", "observedMeasurement": 0}
{"molecule": "C=C(C)Cn1c(=O)on(C(=O)N(c2ccccc2)C(C)C)c1=O", "reportedEndpoint": "Rape plant response rating", "observedMeasurement": 6}
{"molecule": "CC[C@H](C)n1c(=O)on(C(=O)N(c2ccc(F)cc2F)C(C)C)c1=O", "reportedEndpoint": "Rape plant response rating", "observedMeasurement": 8}
{"molecule": "CC(C)N(C(=O)n1oc(=O)n(CCC2=NOCCC2)c1=O)c1ccc(F)cc1", "reportedEndpoint": "Rape plant response rating", "observedMeasurement": 0}

* * *

Test system: giant foxtail
measurementNotes: Test B pre/postemergence giant foxtail
Format: in vivo, Setaria faberii
conditionContext: Rate 250 g/ha, Postemergence; scale 0 to 10, 0 is no effect, 10 is complete control
Recorded Giant foxtail plant response rating for the following compounds
reportedEndpoint: Giant foxtail plant response rating

{"compound": "CC(C)N(C(=O)n1oc(=O)n(C[C@H](C)Cl)c1=O)c1ccccc1", "observedMeasurement": 9}
{"compound": "CC(C)N(C(=O)n1oc(=O)n(CCCCCl)c1=O)c1ccccc1", "observedMeasurement": 9}
{"compound": "COC(=O)C(CCO)n1c(=O)on(C(=O)N(c2ccc(F)cc2)C(C)C)c1=O (stereo not drawn)", "observedMeasurement": 0}
{"compound": "CC(C)N(C(=O)n1oc(=O)n(CC(F)F)c1=O)c1ccc(F)cc1", "observedMeasurement": 9}
{"compound": "CON=CC(C)n1c(=O)on(C(=O)N(c2ccccc2)C(C)C)c1=O (stereo not drawn)", "observedMeasurement": 8}
{"compound": "Cc1nc(C(C)n2c(=O)on(C(=O)N(c3ccc(F)cc3)C(C)C)c2=O)sc1C (stereo not drawn)", "observedMeasurement": 5}

* * *

As shown below, each of these molecules has a reported Plant response rating, Soybean value.
Tested on: soybean
measurementNotes: Test B pre/postemergence soybean
Type: in vivo, Glycine max
conditionContext: Postemergence, Rate 125 g/ha; scale 0 to 10, 0 is no effect, 10 is complete control

{"structureString": "Cc1c(-n2c(=O)on(C(=O)N(c3ccc(Cl)cc3)C(C)C)c2=O)ccc2ccccc12", "Plant response rating, Soybean": 1}
{"structureString": "Cc1nnsc1Cn1c(=O)on(C(=O)N(c2ccc(F)cc2)C(C)C)c1=O", "Plant response rating, Soybean": 1}
{"structureString": "CC(C)N(C(=O)n1oc(=O)n(-c2ccc3ccccc3c2)c1=O)c1ccc(Cl)cc1", "Plant response rating, Soybean": 2}
{"structureString": "CC(C)N(C(=O)n1oc(=O)n(CCl)c1=O)c1ccc(F)cc1", "Plant response rating, Soybean": 0}

Values were extracted from patent US6737383B1.
